molecular target: Microphthalmia-associated transcription factor (Homo sapiens) (UniProt O75030); assay: MITF inhibitors, primary screen, biochemical, AlphaScreen, human (AID 1259374); conditions: AlphaScreen MITF homodimerization, bead proximity signal; at 2.6 µM; active compounds read high;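 also: 0% = vehicle wells with protein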
Sequence (O75030 whole entry, looked up): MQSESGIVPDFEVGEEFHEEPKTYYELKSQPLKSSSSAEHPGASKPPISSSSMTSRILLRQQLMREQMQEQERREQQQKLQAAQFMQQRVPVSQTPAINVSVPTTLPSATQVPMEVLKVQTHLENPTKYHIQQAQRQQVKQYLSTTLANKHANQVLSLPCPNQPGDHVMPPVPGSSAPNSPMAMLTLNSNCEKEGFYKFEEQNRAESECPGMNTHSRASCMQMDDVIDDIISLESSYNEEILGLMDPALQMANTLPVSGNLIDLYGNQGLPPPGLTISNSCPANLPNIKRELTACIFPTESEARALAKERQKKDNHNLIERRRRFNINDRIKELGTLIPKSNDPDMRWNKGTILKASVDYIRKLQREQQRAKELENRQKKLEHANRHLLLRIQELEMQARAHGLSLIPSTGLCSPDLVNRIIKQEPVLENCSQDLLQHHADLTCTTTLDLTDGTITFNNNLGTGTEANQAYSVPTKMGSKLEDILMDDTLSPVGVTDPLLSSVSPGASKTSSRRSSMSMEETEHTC
Among all 650,000 compounds or so, about 5,900 (0.91%) were called active. This excerpt belongs to a sample that is enriched for actives.
Each entry below carries its recorded inhibition.
Give just the number in %; leave the unit off.

Provide measured inhibition on Microphthalmia-associated transcription factor (Homo sapiens) (UniProt O75030) for COc1ccccc1N1C(=O)c2ccc(C(=O)NN3C(=O)c4ccccc4C3=O)cc2C1=O please.
11.1

// output inhibition; input CCc1cccc(OCCOCCn2ccnc2)c1 ; system Microphthalmia-associated transcription factor (Homo sapiens) (UniProt O75030)
65.1

* * *

inhibition: recorded values
target: Microphthalmia-associated transcription factor (Homo sapiens) (UniProt O75030); assay: MITF inhibitors, primary screen, biochemical, AlphaScreen, human (AID 1259374); conditions: AlphaScreen MITF homodimerization, bead proximity signal; at 2.6 µM; active compounds read high;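 also: 0% = vehicle wells with protein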
Among all 650,000 compounds or so, about 5,900 (0.91%) were called active. The sample as a whole holds a higher share of actives than the screen did.
Numbers only here, please. The scale is %.

Some solved cases for reference:
Retrieve inhibition on Microphthalmia-associated transcription factor (Homo sapiens) (UniProt O75030); query CC(CC(=O)N(CC(N)=O)C(C)C)c1ccccc1 (centres undefined)
-5.95

Tell me its inhibition on Microphthalmia-associated transcription factor (Homo sapiens) (UniProt O75030): Cc1ccc(C2CC(c3ccc(Br)cc3)=NN2C(=O)CSc2nnc(CNC(=O)COc3ccccc3)n2C)cc1 (centres undefined)
-9.25

Recall the reported inhibition of CCCCC(C(=O)O)N1C(=O)/C(=C2/C(=O)N(C(C)=O)c3ccccc32)SC1=S (centres undefined) when tested on Microphthalmia-associated transcription factor (Homo sapiens) (UniProt O75030).
6.57

Further cases:
Recall the reported inhibition of CCOc1ccccc1N1C(=O)c2nccnc2C1=O when tested on Microphthalmia-associated transcription factor (Homo sapiens) (UniProt O75030).
1.76

Name the value of inhibition reported for C=CCNC(=O)C(=O)Nc1cc(C)ccc1OC when tested on Microphthalmia-associated transcription factor (Homo sapiens) (UniProt O75030).
12.4

* * *

molecular target: Microphthalmia-associated transcription factor (Homo sapiens) (UniProt O75030); test: MITF inhibitors, primary screen, biochemical, AlphaScreen, human (AID 1259374); conditions: AlphaScreen MITF homodimerization, bead proximity signal; at 2.6 µM;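 also: 0% = vehicle wells with protein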
In all, about 650,000 compounds went through this assay and about 5,900 (0.91%) were called active. Cut-off read from the data, not from the text of the source: active = inhibition above about 50%; inactive = the rest. Shown is part of a subset that was picked to be rich in actives.
Please reply with one of these outcomes: active, inactive

Which outcome was entered for the compound O=C(CSc1nn2c(=O)c3ccccc3nc2s1)c1ccccc1 in this test?
inactive

More entries:
Test call for this compound, please: CCOc1cccc(CN2CCCCC2)c1O
inactive

Per the assay record, what outcome was assigned to O=C1NC(c2cccs2)C(C(=O)c2cccnc2)C(O)(C(F)(F)F)N1 (stereo not given) ?
inactive

Record request — test call for Oc1c(CN2CCCC2)cc(COCc2ccccc2)c2cccnc12
active

In this assay, the call recorded for CN(c1ccccc1)S(=O)(=O)c1ccc(C(=O)N2CCc3ccccc32)cc1 was what?
inactive

// outcome(item) with item = COc1ccc(CN(C)CC(=O)N2CCc3ccccc32)cc1OC
inactive

GET /call?item= Cc1cc(C)n2c(SCc3nc4sc(C)c(C)c4c(=O)[nH]3)nnc2n1 returns the recorded outcome of this test.
inactive

Each compound tested received a call. Report the one for CC1CCN(S(=O)(=O)c2ccc(F)c(C(=O)Nc3cc(Cl)ccc3Cl)c2)CC1 .
inactive

What was the test verdict on O=C(CSc1ncnc2ccccc12)Nc1nc2ccccc2s1 ?
inactive

Dear all, I need the recorded test outcome for CC1CCN(S(=O)(=O)c2ccc(Cl)c(C(=O)Nc3ccccc3[N+](=O)[O-])c2)CC1 , thank you.
active

Which result was noted for this compound in the test: COC(=O)CCS(=O)(=O)c1ccc(C(=O)O)cc1N
inactive

* * *

target: Microphthalmia-associated transcription factor (Homo sapiens) (UniProt O75030); test: MITF inhibitors, primary screen, biochemical, AlphaScreen, human (AID 1259374); conditions: AlphaScreen MITF homodimerization, bead proximity signal; at 2.6 µM; active compounds read high;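 also: 0% = vehicle wells with protein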
Hit rate of the full screen: of about 650,000 compounds, about 5,900 (0.91%) were called active. The list comes from a sample in which actives are over-represented; it also holds close analogues and randomly drawn compounds.
The entries below are paired with their reported inhibition.
Response body: numeric value in %, unit text excluded.

// fetch inhibition given entry CCOC(=O)COc1cc2occ(Oc3cnn(-c4ccccc4)c3)c(=O)c2cc1CC
9.58

Give the value of inhibition reported for the following: O=C1O/C(=C(\c2cccc3ccccc23)[N+](=O)[O-])c2ccccc21
7.98

Report inhibition for COc1cc(C(=O)/C(=C/c2ccccc2F)c2nc3ccccc3o2)cc(OC)c1OC
5.52

Given the molecule CC(C)C(Nc1nc(N2CCC[C@H]2C(=O)O)ccc1[N+](=O)[O-])C(=O)O (stereo not given in full) , write its reported inhibition.
4.19

Switching to the query record.
Look up and state reported inhibition for CC(C)N1CCC(N2CCN(Cc3cc(F)ccc3F)CC2CCO)CC1 (stereo not given)
5.34

* * *

target: Microphthalmia-associated transcription factor (Homo sapiens); assay: MITF inhibitors, primary screen, biochemical, AlphaScreen, human (AID 1259374); details: AlphaScreen MITF homodimerization, bead proximity signal; at 2.6 µM;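 also: 0% = vehicle wells with protein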
In all, about 650,000 compounds went through this assay and about 5,900 (0.91%) were called active. No stated cut-off is given here; in the data, active means inhibition above about 50%; inactive means the rest. The sample as a whole holds a higher share of actives than the screen did.
Parameter call: string, one of active, inactive

Worked examples, 6 compounds total:
// outcome(item) with item = Oc1ccc(/C=N/Nc2ccccc2Cl)c(O)c1O
active

Answer briefly: the call reported for CCOc1cc(/C=N/O)ccc1OCc1cccc(F)c1 in this assay.
inactive

Test call, this compound: COc1ccc(CNc2ccc3ncc(-c4cccc(O)c4)n3n2)cc1
inactive

Dear colleague, could you share the recorded outcome for CCC1CCCCN1Cc1c(O)ccc2c(=O)c(Oc3ccc(OC)cc3)c(C(F)(F)F)oc12 (stereo unspecified) when you have a moment?
inactive

Check the results log: what was the call for COc1cc(Nc2nc(Nc3cc(OC)c(OC)c(OC)c3)c3[nH]cnc3n2)cc(OC)c1OC ?
inactive

For Cc1ccc(-c2c(C(=O)Nc3cccc(O)c3)oc(=O)c3ccccc23)cc1 , what call appears in the results of this test?
inactive

Continuing:
Kindly provide the recorded test outcome for the following compound: Clc1ccccc1/C=N/Nc1nccnc1Cl
inactive

Fill in: this test's call for COc1ccccc1N(C(C)=O)C1C=CS(=O)(=O)C1 (stereo unspecified) is ___
inactive

Tell me the assay call for COc1cc2nc(-c3cccc(C(C)=O)c3)nc(N)c2cc1OC please.
active

Fill in: this test's call for Cc1ccc(/C=C2/C(=O)N(C)C(=S)N(c3ccccc3)C2=O)s1 is ___
inactive

What call does the record list for CC/C(C)=N\NC(=O)CCC(=O)Nc1ccccc1 ?
inactive

* * *

molecular target: Microphthalmia-associated transcription factor (Homo sapiens) (UniProt O75030); test: MITF inhibitors, primary screen, biochemical, AlphaScreen, human (AID 1259374); details: AlphaScreen MITF homodimerization, bead proximity signal; at 2.6 µM; active compounds read high;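 also: 0% = vehicle wells with protein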
Screen size: about 650,000 compounds; about 5,900 (0.91%) were called active. The list comes from a sample in which actives are over-represented; it also holds close analogues and randomly drawn compounds.
value type: inhibition (%)
Just the number please, in %, no unit attached.

Assign inhibition to the following record: Cc1ccccc1S(=O)(=O)Cc1ccc(C(=O)NCCCN2CCCCCC2)o1
-6.96

Fill in reported inhibition for this entry: CCOC(=O)c1ccc(-n2c(=S)sc3c2nc(SCC(=O)N2CCCC2)n2c4ccccc4nc32)cc1
-3.4

// fetch inhibition given entry Cn1c(=NC(=O)COc2ccccc2)sc2cc(S(C)(=O)=O)ccc21
52.2

Determine from records and report inhibition for COc1cccc(N2C(=O)CC(N3CCN(C)CC3)C2=O)c1 (stereo not drawn)
5.95

Fill in inhibition for record Cc1nnc(NC(=O)CSc2nc(C3CCCCC3)nc3ccccc23)s1
-12.8

Complete the entry with inhibition for CCOC(=O)c1ccc(NC(=O)CCc2c(C)nc3nc(CN)nn3c2C)cc1
6.45

Respond only with inhibition recorded for COc1ccccc1N=Cc1cccc(O)c1O
-5.98

Specify inhibition for N#C/C(=C\c1ccc(-c2ccc(S(N)(=O)=O)cc2)o1)C(N)=O and stop.
3.71

Give the value of inhibition reported for the following: C/C(=N\Nc1nc(C(C)(C)C)cs1)c1ccccc1O
6.2

* * *

molecular target: Microphthalmia-associated transcription factor (Homo sapiens); assay: MITF inhibitors, primary screen, biochemical, AlphaScreen, human (AID 1259374); conditions: AlphaScreen MITF homodimerization, bead proximity signal; at 2.6 µM;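 also: 0% = vehicle wells with protein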
About 5,900 (0.91%) of roughly 650,000 compounds were called active. Cut-off read from the data, not from the text of the source: active = inhibition above about 50%; inactive = the rest. The full list was thinned out, with actives kept by preference.
Choose one outcome from this list and give only that: Y (active), N (inactive)

Give the logged outcome of this assay for the following compound: CC(C)(C)n1nnnc1C(c1ccc2ncccc2c1)N1CCSCC1 (stereo unspecified)
Y

// return assay outcome for CC(=O)Nc1cccc(NC(=O)CSc2nc(C(C)(C)C)nc3ccccc23)c1
N

Give the logged outcome of this assay for the following compound: Cc1ccc(SCC(=O)NCc2nc(-c3ccc(C)cc3)no2)cc1
N

Which outcome was entered for the compound C=CCn1c(SCC(=O)Nc2nc3ccccc3s2)nc(O)cc1=O in this test?
Y

Please let me know the test result on file for CC(C)(C)n1nnnc1C(c1ccc(Cl)cc1)N1CCSCC1 (stereo unspecified) .
N

Now turn to the next compound.
Fill in: this test's call for COCCn1nnnc1C(c1ccc2ncccc2c1)N1CCOCC1 (stereo unspecified) is ___
N
